Source listed as patent US20100292083A1.

system: T1, human IL6R (human, UniProt P08887 20-358, limits assumed)
T1 construct: Antigen of the Biacore experiments; the construct is not described (biotinylated IL6R from Peprotech was used for the selections)
T1 sequence (looked up): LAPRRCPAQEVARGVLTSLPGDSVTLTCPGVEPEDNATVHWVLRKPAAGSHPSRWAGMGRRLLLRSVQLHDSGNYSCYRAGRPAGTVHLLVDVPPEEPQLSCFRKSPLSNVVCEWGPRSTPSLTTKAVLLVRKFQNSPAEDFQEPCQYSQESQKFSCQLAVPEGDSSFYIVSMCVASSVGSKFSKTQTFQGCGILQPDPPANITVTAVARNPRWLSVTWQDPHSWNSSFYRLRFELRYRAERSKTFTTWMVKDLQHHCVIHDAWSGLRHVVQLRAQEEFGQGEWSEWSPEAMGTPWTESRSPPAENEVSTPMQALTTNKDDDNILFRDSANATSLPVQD
assayRemarks: SPR (Biacore), periplasmic extract
measuredProperty: binding result

Consider the worked cases shown below.
binder	binding result
32C9PMP2_F5 (VHH, name in Kabat numbering, Humanized 32C9 variant) VHH: EVQLVESGGGLVQPGGSLRLSCAASGFTFDDYDIGWFRQAPGKEREWVSGISSSDGNTYYADSVKGRFTISSDNAKNTLYLQMNSLKAEDTAVYYCAREPPDSSWYLDGSPEFFKYWGQGTLVTVSS	no binding
32C9PMP1_G8 (VHH, name in Kabat numbering, Humanized 32C9 variant) VHH: EVQLVESGGGLVQPGGSLRLSCAASGFTFSDYDIGWFRQAPGKGREGVSGISSSDGNTYYADSVKGRFTISSDNAKNTVYLQMNSLKAEDTAVYYCAREPPDSSWYLDGSPEFFKYWGQGTLVTVSS	no binding
32C9PMP2_B7 (VHH, name in Kabat numbering, Humanized 32C9 variant) VHH: EVQLVESGGGLVQAGGSLRLSCAASGFTFSDYDIGWFRQAPGKGREGVSGISSSDGNTYYADSVKGRFTISRDNAKNTLYLQMNSLKAEDTAVYYCAREPPDSSWYLDGSPEFFKYWGQGTLVTVSS	no binding
32C9PMP1_A2 (VHH, name in Kabat numbering, Humanized 32C9 variant) VHH: EVQLVESGGGLVQPGGSLRLSCAASGFTFDDYDIGWVRQAPGKEREWVSGISSSDGNTYYADSVKGRFTISSDNAKNTVYLQMNSLKAEDTAVYYCAREPPDSSWYLDGSPEFFKYWGQGTLVTVSS	no binding
32C9PMP2_D9 (VHH, name in Kabat numbering, Humanized 32C9 variant) VHH: EVQLVESGGGLVQPGGSLRLSCAASGFTFSDYDIGWFRQAPGKGREGVSGISSSDGNTYYADSVKGRFTISSDNAKNTVYLQMNSLRPEDTAVYYCAREPPDSSWYLDGSPEFFKYWGQGTLVTVSS	no binding
32C9PMP1_G3 (VHH, name in Kabat numbering, Humanized 32C9 variant) VHH: EVQLVESGGGLVQPGGSLRLSCAASGFTFSDYDIGWFRQAPGKGREGVSGISSSDGNTYYADSVKGRFTISRDNAKNTLYLQMNSLRPEDTAVYYCAREPPDSSWYLDGSPEFFKYWGQGTQVTVSS	no binding
32C9PMP1_D5 (VHH, name in Kabat numbering, Humanized 32C9 variant) VHH: EVQLVESGGGLVQPGGSLRLSCAASGFTFDDYDIGWVRQAPGKGREGVSGISSSDGNTYYADSVKGRFTISSDNAKNTLYLQMNSLRPEDTAVYYCAREPPDSSWYLDGSPEFFKYWGQGTLVTVSS	no binding

Attention now turns to another entry.
Query: Endpoint output: binding result of 32C9PMP2_D8 (VHH, name in Kabat numbering, Humanized 32C9 variant) VHH: EVQLVESGGGLVQPGGSLRLSCAASGFTFSDYDIGWFRQAPGKEREGVSGISSSDGNTYYADSVKGRFTISRDNAKNTVYLQMNSLKAEDTAVYYCAREPPDSSWYLDGSPEFFKYWGQGTQVTVSS . Value?
Reply: no binding
